Study Target: recombinant rat mGluR5 (Rattus norvegicus)
Construct: expressed in transfected cells
Experiment Description: Functional calcium flux assay (FLIPR), antagonist evaluation against glutamate-evoked [Ca2+]i increase
Assay type: cell-based
Condition Context: Table 1; HEK293 cells stably expressing recombinant rat mGluR5; 15 min incubation of test compound, then submaximal glutamate; read-out: IC50 value (FLIPR assay)
Known IC50 of a selection of compounds

These solved cases illustrate the format of a correct answer.
FC(F)(F)Oc1ccc(-n2cc(C#Cc3cccnc3)cn2)cc1 :: 1000 to 5000 nM
N#Cc1cc(F)cc(-n2cc(C#Cc3cccnc3)cn2)c1 :: 1000 to 5000 nM
COCCOc1nn(-c2ccc(F)cn2)cc1C#Cc1ccccn1 :: 500 to 1000 nM

Sample `Fc1ccc(-n2cc(C#Cc3ccnc(Cl)c3)cn2)cc1` — what was its IC50? ≤ 500 nM

// returns reported IC50 for input `FC(F)(F)c1ccc(-n2ncc(C#Cc3ccccn3)c2Cl)cc1` ≤ 500 nM

Item `Cc1nn(-c2ccc(OC(F)(F)F)cc2)c(C(F)(F)F)c1C#Cc1ccccn1` has what recorded IC50? 1000 to 5000 nM

---

Study Target: recombinant rat mGluR5 (Rattus norvegicus, UniProt P31424)
Construct: expressed in transfected cells
Sequence (P31424 21-1203): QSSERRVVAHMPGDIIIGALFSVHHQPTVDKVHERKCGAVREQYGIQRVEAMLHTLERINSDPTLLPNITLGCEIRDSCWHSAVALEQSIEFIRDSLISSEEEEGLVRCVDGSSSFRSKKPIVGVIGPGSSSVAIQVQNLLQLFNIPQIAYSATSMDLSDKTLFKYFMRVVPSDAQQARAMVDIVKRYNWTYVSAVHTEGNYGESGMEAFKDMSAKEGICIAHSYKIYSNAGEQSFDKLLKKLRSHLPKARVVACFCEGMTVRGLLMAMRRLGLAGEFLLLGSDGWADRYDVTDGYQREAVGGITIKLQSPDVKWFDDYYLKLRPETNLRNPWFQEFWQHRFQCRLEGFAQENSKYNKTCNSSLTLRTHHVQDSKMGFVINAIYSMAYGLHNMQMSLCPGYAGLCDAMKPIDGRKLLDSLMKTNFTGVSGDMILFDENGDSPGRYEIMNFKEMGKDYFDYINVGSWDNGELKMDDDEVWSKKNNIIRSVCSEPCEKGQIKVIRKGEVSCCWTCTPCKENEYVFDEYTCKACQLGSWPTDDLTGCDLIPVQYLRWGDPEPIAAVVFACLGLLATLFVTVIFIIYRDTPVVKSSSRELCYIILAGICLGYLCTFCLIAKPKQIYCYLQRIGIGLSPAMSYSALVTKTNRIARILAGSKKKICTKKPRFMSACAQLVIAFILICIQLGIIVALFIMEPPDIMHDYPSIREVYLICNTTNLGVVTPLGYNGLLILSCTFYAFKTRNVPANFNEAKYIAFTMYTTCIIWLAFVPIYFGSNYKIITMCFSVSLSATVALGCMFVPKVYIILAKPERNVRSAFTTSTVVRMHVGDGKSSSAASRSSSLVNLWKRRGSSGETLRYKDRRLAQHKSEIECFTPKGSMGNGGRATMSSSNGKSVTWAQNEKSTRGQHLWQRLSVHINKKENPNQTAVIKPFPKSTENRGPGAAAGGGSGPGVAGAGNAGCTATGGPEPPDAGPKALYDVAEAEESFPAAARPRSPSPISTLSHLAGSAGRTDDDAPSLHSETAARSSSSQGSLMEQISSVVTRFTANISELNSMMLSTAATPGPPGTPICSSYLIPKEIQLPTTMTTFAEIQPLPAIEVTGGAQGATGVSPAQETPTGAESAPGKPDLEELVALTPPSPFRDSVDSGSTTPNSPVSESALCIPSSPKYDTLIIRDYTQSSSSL
Experiment Description: Functional calcium flux assay (FLIPR), antagonist evaluation against glutamate-evoked [Ca2+]i increase
Type: cell-based
Condition Context: Table 1; HEK293 cells stably expressing recombinant rat mGluR5; 15 min incubation of test compound, then submaximal glutamate; read-out: IC50 value (FLIPR assay)
pIC50: −log10 of the molar value.
Reported Property: pIC50

N#Cc1cc(F)cc(-n2cc(C#Cc3cccc(Cl)c3)cn2)c1 :: 6.00 to 6.30
Fc1cncc(-n2cc(C#Cc3ccccn3)c(Cl)n2)c1 :: ≥ 6.30
Cc1nn(-c2cc(F)cc(C#N)c2)c(C(F)(F)F)c1C#Cc1ccccn1 :: 5.30 to 6.00
Fc1ccc(-n2ncc(C#Cc3ncccn3)c2Cl)cc1 :: ≥ 6.30
COc1nn(-c2ccc(F)cc2)cc1C#Cc1ccccn1 :: ≥ 6.30
Cc1nn(-c2ccc(OC(F)(F)F)cc2)c(C)c1C#Cc1ccccn1 :: ≥ 6.30
N#Cc1cc(F)cc(-n2cc(C#Cc3ccccn3)c(Cl)n2)c1 :: ≥ 6.30
FC(F)(F)Oc1ccc(-n2cc(C#Cc3cccc(Cl)c3)cn2)cc1 :: ≥ 6.30

What is its pIC50 for recombinant rat mGluR5 (Rattus norvegicus, UniProt P31424)? Entry: `COCCOc1ccc(-n2cc(C#Cc3ccccn3)cn2)cc1` ≥ 6.30

Find pIC50 (recombinant rat mGluR5 (Rattus norvegicus, UniProt P31424)) for the entry `COc1c(C#Cc2ccccn2)c(C)nn1-c1ccc(OC(F)(F)F)cc1` 5.30 to 6.00

# get_value(readout= pIC50, system= recombinant rat mGluR5 (Rattus norvegicus, UniProt P31424)) for `N#Cc1cc(F)cc(-n2cc(C#Cc3ccccn3)c(OCCO)n2)c1` ≥ 6.30

// map `Cc1c(C#Cc2ccccn2)cnn1-c1cc(F)cc(C#N)c1` to recorded pIC50 (system: recombinant rat mGluR5 (Rattus norvegicus, UniProt P31424)) ≥ 6.30

# get_value(readout= pIC50, system= recombinant rat mGluR5 (Rattus norvegicus, UniProt P31424)) for `Cc1nn(-c2ccc(F)nc2)c(C)c1C#Cc1ccccn1` ≥ 6.30

Recall the recorded pIC50 for `N#Cc1cc(F)cc(-n2cc(C#Cc3ccccn3)c(OC(F)F)n2)c1` with recombinant rat mGluR5 (Rattus norvegicus, UniProt P31424) and state it. ≥ 6.30

Give recombinant rat mGluR5 (Rattus norvegicus, UniProt P31424) pIC50 for `FC(F)(F)Oc1ccc(-n2ncc(C#Cc3ncccn3)c2Cl)cc1` ≥ 6.30

# get_value(readout= pIC50, system= recombinant rat mGluR5 (Rattus norvegicus, UniProt P31424)) for `N#Cc1cc(F)cc(-n2cc(C#Cc3ncccn3)c(C3CC3)n2)c1` ≥ 6.30

Give recombinant rat mGluR5 (Rattus norvegicus, UniProt P31424) pIC50 for `COCCOc1nn(-c2cc(F)cc(C#N)c2)cc1C#Cc1ccccn1` ≥ 6.30

For recombinant rat mGluR5 (Rattus norvegicus, UniProt P31424), provide pIC50 of `Fc1ccc(-n2cc(C#Cc3ncccn3)cn2)cn1` please. ≥ 6.30

Give pIC50 (recombinant rat mGluR5 (Rattus norvegicus, UniProt P31424)) of the following compound: `COc1c(C#Cc2ccccn2)c(C)nn1-c1ccc(F)cc1` ≥ 6.30

Hello, I am looking for reported pIC50 with recombinant rat mGluR5 (Rattus norvegicus, UniProt P31424) for `N#Cc1cc(F)cc(-n2cc(C#Cc3ccccn3)cn2)c1` . Could you help? ≥ 6.30

---

As shown below, each of these compounds has a reported pIC50 value.
Study Target: recombinant rat mGluR5 (Rattus norvegicus)
Construct: expressed in transfected cells
Experiment Description: Functional calcium flux assay (FLIPR), antagonist evaluation against glutamate-evoked [Ca2+]i increase
Assay type: cell-based
Condition Context: Table 1; HEK293 cells stably expressing recombinant rat mGluR5; 15 min incubation of test compound, then submaximal glutamate; read-out: IC50 value (FLIPR assay)
Protocol: Functional Calcium Clux Assay Methodology For functional assays, HEK293 cells stably expressing recombinant rat mGluR5 were seeded in 384-well plates and dye loaded using Fluo-8. Cells were then washed to remove the un-incorporated dye. […] Intracellular calcium ([Ca^2+]i) measurements were performed using a fluorometric imaging plate reader (FLIPR, Molecular Devices). […]
pIC50: −log10 of the molar value.

Reference set (2 entries):
COCCOc1nn(-c2cc(F)cc(C#N)c2)c(C)c1C#Cc1ncccn1 :: 5.30 to 6.00
Fc1ccc(-n2cc(C#Cc3ccccc3)cn2)cc1 :: ≥ 6.30

Now for the compound whose pIC50 we want.
Value wanted: pIC50 (recombinant rat mGluR5 (Rattus norvegicus)) of entry `Fc1cncc(-n2cc(C#Cc3ccccn3)cn2)c1` ≥ 6.30

---

Study Target: recombinant rat mGluR5 (Rattus norvegicus, UniProt P31424)
Construct: expressed in transfected cells
Experiment Description: Functional calcium flux assay (FLIPR), antagonist evaluation against glutamate-evoked [Ca2+]i increase
Type: cell-based
Condition Context: Table 2; HEK293 cells stably expressing recombinant rat mGluR5; 15 min incubation of test compound, then submaximal glutamate; read-out: IC50 (FLIPR assay)
Below, each of the compounds is paired with its reported IC50 value.

FC(F)(F)Oc1ccc(-n2ccc(C#Cc3cccc(Cl)c3)n2)cc1 [Compound 122] :: 1000 to 5000 nM
Cc1cc(C#Cc2ccncc2)nn1-c1cc(F)cc(C#N)c1 [Compound 102] :: ≤ 500 nM
Fc1ccc(-n2ccc(C#Cc3cnccn3)n2)cc1 [Compound 119] :: 1000 to 5000 nM
FC(F)(F)Oc1ccc(-n2ccc(C#Cc3ccncc3)n2)cc1 [Compound 124] :: 1000 to 5000 nM
FC(F)(F)Oc1ccc(-n2ccc(C#Cc3ncccn3)n2)cc1 [Compound 123] :: 1000 to 5000 nM

Param item = Cc1cn(-c2cc(F)cc(C#N)c2)nc1C#Cc1ncccn1 [Compound 60] ; retrieve measured IC50. ≤ 500 nM

Fill blank: measured IC50 of the compound N#Cc1cc(F)cc(-n2ccc(C#Cc3ccnc(Cl)c3)n2)c1 [Compound 108] is ____. ≤ 500 nM

# get_value(readout='IC50', item= Cc1cc(C#Cc2ccncc2)nn1-c1ccc(F)cc1 [Compound 130] ) ≤ 500 nM

---

The entries below are paired with their reported pIC50.
Study Target: recombinant rat mGluR5 (Rattus norvegicus)
Construct: expressed in transfected cells
Experiment Description: Functional calcium flux assay (FLIPR), antagonist evaluation against glutamate-evoked [Ca2+]i increase
Format: cell-based
Condition Context: Table 1; HEK293 cells stably expressing recombinant rat mGluR5; 15 min incubation of test compound, then submaximal glutamate; read-out: IC50 value (FLIPR assay)
pIC50: −log10 of the molar value.

# count of solved cases: 3
Cc1nn(-c2ccc(F)cc2)c(C)c1C#Cc1ccncn1 [Compound 3] :: ≥ 6.30
Fc1ccc(-n2ncc(C#Cc3ncccn3)c2Cl)cn1 [Compound 19] :: ≥ 6.30
Fc1ccc(-n2cc(C#Cc3ccccn3)cn2)nc1 [Compound 27] :: ≥ 6.30

Missing value: pIC50, recombinant rat mGluR5 (Rattus norvegicus), entry COc1c(C#Cc2ccccn2)cnn1-c1ccc(F)cc1 [Compound 51] . Fill in? ≥ 6.30

Missing value: pIC50, recombinant rat mGluR5 (Rattus norvegicus), entry Fc1ccc(-n2cc(C#Cc3ccncc3)cn2)cc1 [Compound 87] . Fill in? ≥ 6.30

Give the reported pIC50 for FC(F)(F)Oc1ccc(-n2cc(C#Cc3ccncc3)cn2)cc1 [Compound 94] (system: recombinant rat mGluR5 (Rattus norvegicus)). 6.00 to 6.30

Write down the reported pIC50 of COc1c(C#Cc2ccccn2)cnn1-c1ccc(F)cn1 [Compound 62] , test system: recombinant rat mGluR5 (Rattus norvegicus). ≥ 6.30
